- system-tested: BRD9 (Homo sapiens, UniProt Q9H8M2)
- Sequence (Q9H8M2 1-597): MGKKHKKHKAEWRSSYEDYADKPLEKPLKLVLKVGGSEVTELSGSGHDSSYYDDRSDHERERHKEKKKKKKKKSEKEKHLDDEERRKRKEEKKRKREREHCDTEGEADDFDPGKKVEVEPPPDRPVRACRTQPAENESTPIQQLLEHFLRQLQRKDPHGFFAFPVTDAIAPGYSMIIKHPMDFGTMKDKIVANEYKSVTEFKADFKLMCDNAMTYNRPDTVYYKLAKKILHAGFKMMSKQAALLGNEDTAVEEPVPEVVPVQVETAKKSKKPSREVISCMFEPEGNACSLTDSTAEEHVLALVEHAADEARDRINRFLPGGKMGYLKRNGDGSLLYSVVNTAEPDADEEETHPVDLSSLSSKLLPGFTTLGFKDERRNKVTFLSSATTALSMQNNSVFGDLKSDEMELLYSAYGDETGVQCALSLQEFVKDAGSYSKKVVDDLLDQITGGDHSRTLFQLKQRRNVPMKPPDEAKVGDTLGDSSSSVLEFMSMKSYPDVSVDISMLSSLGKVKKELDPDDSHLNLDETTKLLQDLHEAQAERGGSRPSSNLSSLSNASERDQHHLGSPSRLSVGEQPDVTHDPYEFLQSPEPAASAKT
- test-protocol: Assay Protocol 1 - Degradation of HiBit-BRD9 in HEK293
- Format: cell-based
- details: Assay Protocol 1: HiBit-BRD9 in HEK293, 6 h, titration up to 10 μM
Below, each entry is listed alongside its reported DC50.
measure-name: DC50

1) COc1cc(-c2cn(C)c(=O)c(C)c2C)cc(OC)c1CN1C2CC1CN(C(=O)/C(C#N)=C/c1cccc(Br)n1)C2 (mixture of isomers) [BRD9o] : < 0.025 µM
2) COc1cc(-c2cn(C)c(=O)c(C)c2C)cc(OC)c1CN1C2CC1CN(C(=O)/C(C#N)=C/c1nccs1)C2 (mixture of isomers) [BRD9n] : < 0.025 µM
3) COc1cc(-c2cn(C)c(=O)c(C)c2C)cc(OC)c1CN1CCN(C(=O)/C(C#N)=C/c2nccs2)CC1 [BRD9g] : > 0.2 µM
4) COc1cc(-c2cn(C)c(=O)c(C)c2C)cc(OC)c1CN(C)C1CCN(C(=O)/C(C#N)=C/C(C)(C)C)CC1 [BRD9d] : < 0.025 µM
5) COc1cc(-c2cn(C)c(=O)c(C)c2C)cc(OC)c1CN1CCC2(CC1)CCN(C(=O)/C(C#N)=C/c1cccc(Br)n1)CC2 [BRD9r] : < 0.025 µM

----------
- system-tested: BRD9 (Homo sapiens)
- Sequence (Q9H8M2 1-597): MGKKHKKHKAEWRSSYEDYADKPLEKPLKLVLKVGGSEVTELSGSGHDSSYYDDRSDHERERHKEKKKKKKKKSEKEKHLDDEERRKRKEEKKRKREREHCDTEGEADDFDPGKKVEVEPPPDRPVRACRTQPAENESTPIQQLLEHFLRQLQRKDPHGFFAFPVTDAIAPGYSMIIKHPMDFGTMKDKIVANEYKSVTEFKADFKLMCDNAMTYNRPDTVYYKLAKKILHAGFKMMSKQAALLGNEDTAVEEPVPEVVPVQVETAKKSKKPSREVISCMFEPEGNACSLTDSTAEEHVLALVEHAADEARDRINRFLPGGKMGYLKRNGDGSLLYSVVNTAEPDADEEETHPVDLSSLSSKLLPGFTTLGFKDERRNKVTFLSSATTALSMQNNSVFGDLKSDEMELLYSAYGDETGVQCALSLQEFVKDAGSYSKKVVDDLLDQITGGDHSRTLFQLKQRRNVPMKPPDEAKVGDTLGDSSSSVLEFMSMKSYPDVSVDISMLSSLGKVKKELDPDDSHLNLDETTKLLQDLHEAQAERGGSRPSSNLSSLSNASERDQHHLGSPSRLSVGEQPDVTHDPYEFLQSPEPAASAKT
- test-protocol: Assay Protocol 1 - Degradation of HiBit-BRD9 in HEK293
- Format: cell-based
- details: Assay Protocol 1: HiBit-BRD9 in HEK293, 6 h, titration up to 10 μM
measure-name: DC50

1) COc1cc(-c2cn(C)c(=O)c(C)c2C)cc(OC)c1CN1CC2CC(C1)N2C(=O)/C(C#N)=C/c1nccs1 (mixture of isomers) : > 200 nM
2) COc1cc(-c2cn(C)c(=O)c(C)c2C)cc(OC)c1CN(C)C1CCN(C(=O)/C(C#N)=C/C23CC(C2)C3)CC1 (mixture of isomers) : < 25 nM
3) COc1cc(-c2cn(C)c(=O)c3ccsc23)cc(OC)c1CN1CCN(C(=O)/C(C#N)=C/C(C)(C)C)CC1 : 25 to 200 nM
4) COc1cc(-c2cn(C)c(=O)c(C)c2C)cc(OC)c1CN(C)C1CCN(C(=O)/C(C#N)=C/c2cccc(Br)n2)CC1 : < 25 nM
5) COc1cc(-c2cn(C)c(=O)c(C)c2C)cc(OC)c1CN1CC2CCC(C1)N2C(=O)/C(C#N)=C/c1nccs1 (mixture of isomers) : > 200 nM
6) COc1cc(-c2cn(C)c(=O)c(C)c2C)cc(OC)c1CN1CCN(C(=O)/C(C#N)=C/C(C)(C)C)CC1 : 25 to 200 nM

----------
- system-tested: BRD9 (Homo sapiens, UniProt Q9H8M2)
- test-protocol: Assay Protocol 2 - Degradation of BRD9 (IF) in MV4-11 cells
- Format: cell-based
- Set-up: host or cells: MV4-11
- details: Assay Protocol 2: BRD9 immunofluorescence, 24 hours
measure-name: Dmax

1. COc1ccc([C@@H]2CN(C(=O)/C(C#N)=C/c3nccs3)C[C@H]2C(=O)N2CCN(Cc3c(OC)cc(-c4cn(C)c(=O)c(C)c4C)cc3OC)CC2)cc1 [BRD9ah] : ≥ 70%
2. COc1cc(-c2cn(C)c(=O)c(C)c2C)cc(OC)c1CN1CC2CC1CN2C(=O)/C(C#N)=C/c1nccs1 (mixture of isomers) [BRD9i] : 30 to 50%
3. COc1cc(-c2cn(C)c(=O)c(C)c2C)cc(OC)c1CN1CC2CC(C1)N2C(=O)/C(C#N)=C/c1cccc(Br)n1 (mixture of isomers) [BRD9m] : ≥ 70%
4. COc1cc(-c2cn(C)c(=O)c(C)c2C)cc(OC)c1CN1CCN(C(=O)C2CC(C)CN(C(=O)/C(C#N)=C/C(C)(C)C)C2)CC1 (centres unmarked) [BRD9ba] : ≥ 70%
5. COc1cc(-c2cn(C)c(=O)c(C)c2C)cc(OC)c1CN1C[C@@H](C)N(C(=O)/C(C#N)=C/C(C)(C)C)C[C@@H]1C [BRD9ad] : 50 to 70%

----------
Recorded Dmax values for a group of compounds are listed next.
- system-tested: BRD9 (Homo sapiens)
- Sequence (Q9H8M2 1-597): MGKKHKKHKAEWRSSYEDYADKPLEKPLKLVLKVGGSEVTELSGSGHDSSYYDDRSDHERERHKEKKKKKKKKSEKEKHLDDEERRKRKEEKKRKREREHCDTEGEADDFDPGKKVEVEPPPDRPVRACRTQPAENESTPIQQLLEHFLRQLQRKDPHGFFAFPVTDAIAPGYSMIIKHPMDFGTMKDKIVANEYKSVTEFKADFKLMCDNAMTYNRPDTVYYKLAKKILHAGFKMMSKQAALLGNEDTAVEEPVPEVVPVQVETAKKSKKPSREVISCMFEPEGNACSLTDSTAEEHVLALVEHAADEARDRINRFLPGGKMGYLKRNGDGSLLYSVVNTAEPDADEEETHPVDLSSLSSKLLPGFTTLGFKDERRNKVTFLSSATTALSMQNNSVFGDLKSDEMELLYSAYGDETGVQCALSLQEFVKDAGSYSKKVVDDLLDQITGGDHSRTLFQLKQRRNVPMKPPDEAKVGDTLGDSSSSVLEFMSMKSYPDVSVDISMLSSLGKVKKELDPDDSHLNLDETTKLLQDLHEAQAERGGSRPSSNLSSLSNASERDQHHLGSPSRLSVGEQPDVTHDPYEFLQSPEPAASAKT
- test-protocol: Assay Protocol 2 - Degradation of BRD9 (IF) in MV4-11 cells
- Format: cell-based
- Design: host or cells: MV4-11
- details: Assay Protocol 2: BRD9 immunofluorescence, 24 hours
- Experimental: Assay Protocol 2—Degradation of BRD9 (IF) A suspension of MV4-11 cells (ATCC CRL-9591) was prepared in phenol red-free assay media (IMDM Thermo Scientific 21056023+10% FBS ATCC 302025) and cells were seeded at 20,000 cells per well (45 μL) in sterile black poly-d-lysine coated 384 well plates (Greiner 781948). Compounds were prepared at 1000× final concentration in DMSO, diluted 1:100 in assay media, and 5 μL compound was added to each well of the cell plate. […]
measure-name: Dmax

1) COc1cc(-c2cn(C)c(=O)c(C)c2C)cc(OC)c1CN1C2CC1CN(C(=O)/C(C#N)=C/C1(C(F)(F)F)CCC1)C2 (mixture of isomers) : 50 to 70%
2) COc1cc(-c2cn(C)c(=O)c(C)c2C)cc(OC)c1CN1C2CC1CN(C(=O)/C(C#N)=C/c1nccs1)C2 (mixture of isomers) : ≥ 70%
3) COc1cc(-c2cn(C)c(=O)c(C)c2C)cc(OC)c1CN1C2CC1CN(C(=O)/C(C#N)=C/c1cccc(C(F)(F)F)n1)C2 : ≥ 70%

// data source = patent US20260232812A1
